Target: NT-hFMRP (Homo sapiens, UniProt Q06787 218-632)
Experiment: fluorescence anisotropy
Recorded endpoint: pKd
Scale for pKd: -log10 of concentration given in mol/L; no unit attached.

Give the measured pKd of UUGGAUGGAUGGAUGGAU (structured_RNA) [(UGGA)4] .
6.15

Try this binder next: GGGGGGGGGGGGGGGGGU (structured_RNA) [PolyG17]
7.85

Could you do the same for UGGACUUGGACUUGGACU (ssRNA, m6A at position 10) [UGGm6ACU] , please?
5.90

// next record UGGGGU (structured_RNA) [UG4U]
6.96

Data credit: paper PMC7306444
